target: c-Src SH2;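 further: peptide library displayed on the E. coli surface as eCPX fusions, selected cells deep-sequenced, score is each peptide's frequency after selection divided by its frequency in the input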
experimental_details: SH2 binding enrichment of the phosphorylated peptide, bacterial display (enrichment ratio); higher = better substrate or ligand; peptides without Tyr show the background
quantity: SH2 binding enrichment

Illustrative cases are given below, each with its answer.
- FFLGAYDRFLP [SLC22A5_Y486_V481F_YF]: 1.25
- NQKGKYFNVER [ANAPC4_Y469_R465Q]: 0.667

P = STTIHYNYMCN [TP53_Y234_C229S]
Q = GGCQEYTGAPY [NAXD_Y85]
Exercise: So which one has the bigger SH2 binding enrichment here, P or Q ? Use the label to indicate which entry you chose.
Solution: P

====

target: FGFR1 (UniProt P11362)
Sequence (P11362 whole entry, looked up): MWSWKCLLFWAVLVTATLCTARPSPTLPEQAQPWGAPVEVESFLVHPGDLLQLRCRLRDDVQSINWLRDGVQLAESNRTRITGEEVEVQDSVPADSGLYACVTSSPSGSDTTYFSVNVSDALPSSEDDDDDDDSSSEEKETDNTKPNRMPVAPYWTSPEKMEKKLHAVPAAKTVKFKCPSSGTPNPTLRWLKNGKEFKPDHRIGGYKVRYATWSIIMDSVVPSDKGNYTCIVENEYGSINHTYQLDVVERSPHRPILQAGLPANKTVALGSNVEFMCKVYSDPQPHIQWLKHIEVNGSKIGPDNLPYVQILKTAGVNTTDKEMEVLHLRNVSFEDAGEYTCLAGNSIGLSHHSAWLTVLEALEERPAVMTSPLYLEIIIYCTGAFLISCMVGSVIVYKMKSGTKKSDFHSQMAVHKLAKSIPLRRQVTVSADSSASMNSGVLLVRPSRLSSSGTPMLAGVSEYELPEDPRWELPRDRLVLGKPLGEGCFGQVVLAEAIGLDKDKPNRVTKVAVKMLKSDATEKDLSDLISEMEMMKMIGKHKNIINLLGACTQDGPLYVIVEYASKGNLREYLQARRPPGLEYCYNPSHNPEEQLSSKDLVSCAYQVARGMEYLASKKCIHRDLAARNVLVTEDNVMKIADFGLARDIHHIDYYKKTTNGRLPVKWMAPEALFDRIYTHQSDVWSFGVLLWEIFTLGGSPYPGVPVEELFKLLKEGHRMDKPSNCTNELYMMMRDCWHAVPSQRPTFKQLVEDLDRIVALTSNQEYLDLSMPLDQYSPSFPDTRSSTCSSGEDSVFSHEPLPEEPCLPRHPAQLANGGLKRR
experimental_details: phosphorylation enrichment, bacterial display (enrichment ratio); higher = better substrate or ligand; peptides without Tyr show the background
Reported phosphorylation enrichment values for the following sequences.
Simply state the number, no unit and no words.

Illustrative cases are given below, each with its answer.
* KSPDSYQKILL [ATM_Y1415] | 0.488
* KNKNRSKNILP [PTPN11_Y279_Y279S] | 0.531
* LRYDVYGGENE [STOX1_Y610_E608D] | 1.09
* LAVNPYGPPDL | 0.798
* PSARTYCYKQE [KLHDC9_Y175] | 0.454
* RTTIHYNYMCN [TP53_Y234_C229R] | 0.892
* EERNPYYSSAR [MCCC2_Y520_G517R] | 0.487
* LENSTYQYIRV [CRB1_Y760] | 13

The record that follows has no phosphorylation enrichment shown yet.
Exercise: Please report phosphorylation enrichment for the following sequence: KTVQDYLEKFF [MMP8_Y36_YF]
Solution: 0.643

====

System: AncSZ
experimental_details: phosphorylation enrichment, bacterial display (enrichment ratio); higher = better substrate or ligand; peptides without Tyr show the background
Reported phosphorylation enrichment values for the following sequences.
Simply state the number, no unit and no words.

Illustrative cases are given below, each with its answer.
• REQREYLDQLN [CCDC88B_Y1277] = 0.917
• HNELFYEEAEH [VANGL1_Y345_YF] = 1.89
• FSQNIYIQNRN [PKP2_Y631_YF] = 0.619

The record that follows has no phosphorylation enrichment shown yet.
Exercise: Please report phosphorylation enrichment for the following sequence: HYGNNYTDVLQ [MACC1_Y803_R804T]
Solution: 1.59

====

System: Fer (mouse)
experimental_details: phosphorylation enrichment, bacterial display (enrichment ratio); higher = better substrate or ligand; peptides without Tyr show the background
Reported phosphorylation enrichment values for the following sequences.
Simply state the number, no unit and no words.

• TARREYMHSPS [CPOX_Y429_W427R] = 0.396
• LSSISYVGCSL [ADGRD1_Y571] = 0.445
• GMTLSYLFREP [NDUFS8_Y74] = 0.367
• GMSQAYSSSQR [DES_Y5] = 0.354
• SSFDIYHLSRE [KIR3DL2_Y253_YF] = 0.788
• VKPENYRRPDI [VHL_Y175_L178P] = 0.344
• FFLGAYDRFLP [SLC22A5_Y486_V481F_YF] = 1.04
• YETDYYQKGGK [INSR_Y1190_R1191Q] = 0.573

The record that follows has no phosphorylation enrichment shown yet.
Exercise: Please report phosphorylation enrichment for the following sequence: GMEIVYVYVKK [DNAI2_Y5]
Solution: 0.545
